Tested on: HCC1569
method.description: H1.0 immunofluorescence intensity relative to DMSO (% of DMSO); higher = stronger H1.0 induction, active = 140 or more
condition.parameters: concentration: 10 µM; 24 h
assay.readout: H1.0 immunofluorescence intensity

compound: CC(=O)C1CCC2C3CCC4CC(O)CCC4(C)C3CCC12C (stereo not drawn) [5alpha-Pregnan-3alpha-ol-20-one]
result.value: 102
//
compound: CCCCCC=CCC=CCC=CCC=CCCCC(=O)NCC(=O)O [N-arachidonylglycine]
result.value: 99.6
//
compound: CCCCCC=CCC(C=CC=CCC=CCCCC(=O)O)OO (centres undefined)
result.value: 99.8
//
compound: NC(Cn1oc(=O)[nH]c1=O)C(=O)O (single isomer, unassigned; (+)) [(+)-Quisqualic acid]
result.value: 103

----------
Test system: TDF
method.description: H1.0 immunofluorescence intensity relative to DMSO (% of DMSO); higher = stronger H1.0 induction, active = 120 or more
condition.parameters: concentration: 10 µM; 24 h
Outcome codes: active, inactive

compound: O=[N+]([O-])C=Cc1ccc2c(c1)OCO2
class: active
//
compound: CN(C)C(=O)Oc1cc(OC(=O)N(C)C)cc(C(O)CNC(C)(C)C)c1 (configuration not stated)
class: inactive
//
compound: CCS(=O)(=O)Nc1cccc(C(=C2CCCCC2)c2cnc[nH]2)c1
class: inactive
//
compound: CC1CCC2(O)C3(C)CC4(O)OC2(C1O)C1(O)C3(O)C(OC(=O)c2ccc[nH]2)C(O)(C(C)C)C41C (configuration not stated)
class: inactive
//
compound: COc1cc(CC(C)N)c(OC)cc1I.Cl (racemic)
class: inactive
//
compound: COc1ccc(C(=O)c2c(C)n(CCN3CCOCC3)c3cc(I)ccc23)cc1
class: inactive
//
compound: C=CC1CN2CCC1CC2C(O)c1ccnc2ccccc12 (single isomer, unassigned; (+)) [(+)-Cinchonine]
class: inactive

----------
System: TDF
method.description: cell number relative to DMSO (% of DMSO); higher = more cells (less growth inhibition / toxicity)
condition.parameters: concentration: 10 µM; 24 h
Give True when the value for cell number is at least 100. Give False when it is less.

compound: Cc1c(C(C)C2NCC(C)CC2O)ccc2c1CC1C2CC=C2CC(O)CCC21C (centres undefined) [Veratramine]
class: False

compound: CCCC[N+]1(C)C2CC(OC(=O)C(CO)c3ccccc3)CC1C1OC12.[Br-] (centres undefined) [Scopolamine N-butylbromide]
class: True

compound: CC(=O)OC1CC2CCC3C(CCC4(C)C3CC([N+]3(C)CCCCC3)C4OC(C)=O)C2(C)CC1[N+]1(C)CCCCC1.[Br-].[Br-] (centres undefined) [Pancuronium bromide]
class: False

compound: CCCCCC=CCC=CCC=CCC=CCCCC(=O)NCCO [Anandamide (20:4, n-6)]
class: False

compound: CN1C2CCC1CC(OC(=O)c1cc(Cl)cc(Cl)c1)C2 (centres undefined) [3-Tropanyl-3,5-dichlorobenzoate]
class: True

compound: NC(=O)CN1CC(O)CC1=O (centres undefined) [Oxiracetam]
class: True

----------
H1.0 immunofluorescence intensity by entry:
Test system: TDF
method.description: H1.0 immunofluorescence intensity relative to DMSO (% of DMSO); higher = stronger H1.0 induction, active = 120 or more
condition.parameters: concentration: 10 µM; 24 h
assay.readout: H1.0 immunofluorescence intensity

compound: C=C1C2CC3(C1O)C1CC4C5(C)CCC(O)C4(C1N(CC)C5)C3CC2=O (stereo not given)
assay.readout: H1.0 immunofluorescence intensity
result.value: 90

compound: CCC12C=CCN3CCC4(c5ccc(OC)cc5N(C)C4C(O)(C(=O)OC)C1OC(C)=O)C32 (stereo not given)
assay.readout: H1.0 immunofluorescence intensity
result.value: 91.7

compound: CC12CCC3C(CC=C4CC(O)CCC43C)C1CCC2=O (stereo not given) [Dehydroepiandrosterone]
assay.readout: H1.0 immunofluorescence intensity
result.value: 99.7

compound: O=C1C=C2C=CC3CC2(O1)C1CCCCN31 (stereo not given)
assay.readout: H1.0 immunofluorescence intensity
result.value: 102

compound: CC12CCC(O)CC1CCC1C2CCC2(C)C(C3=CC(=O)OC3)C(O)CC12O (stereo not given)
assay.readout: H1.0 immunofluorescence intensity
result.value: 103
